Listed below: IC50 values for each entry.
Biological target: high affinity rolipram binding form of PDE IV (HPDE IV)
Assay: [3H]-rolipram binding assay (competition for high affinity site)
Conditions: competition with 1 nM [3H]-rolipram, 1 hour at 30° C.
Protocol: Inhibition of PDE IV catalytic activity can thus be used as an index of the potency of compounds at LPDE IV. The assay was run for 1 hour at 30° C. The reaction was terminated and bound ligand was separated from free ligand using a Brandel cell harvester. Competition for the high affinity binding site was assessed under conditions that were identical to those used for measuring low affinity PDE activity, expect that [^3H]-cAMP was not present.
Returns: string containing the numeric result and its unit.

// worked examples, IC50 included
CCOC(=O)C=C1C[C@@H](c2ccc(OC)c(OC3CCCC3)c2)CN1 :: 450 nM
COc1cc2c(cc1OC)-c1c/c(=N\c3c(C)cc(C)cc3C)n(C)c(=O)n1CC2 [trequinsin, reference compound] :: 5000 nM
CCOC(=O)C=C1C[C@H](c2ccc(OC)c(OC3CCCC3)c2)CN1 :: 300 nM
CC(C)Cn1c(=O)n(C)c(=O)c2[nH]cnc21 [IBMX, reference compound] :: 20300 nM
COc1ccc(CCNC(=O)C(N)=O)cc1OC1CCCC1 :: 12 nM
OCCN(CCO)c1nc(N2CCCCC2)c2nc(N(CCO)CCO)nc(N3CCCCC3)c2n1 [dipyridamole, reference compound] :: 32500 nM

Summary for this compound, CCCCn1c(=O)c2c(ncn2CC(C)=O)n(CCCC)c1=O [denbufylline, 7-acetonyl,1,3-dibutylxanthine, reference compound] : IC50 is 50 nM

Summary for this compound, COC(=O)C1CC(C#N)(c2ccc(OC(F)F)c(OCC3CC3)c2)CCC1=O (centres unmarked) : IC50 is 500 nM

* * *

Listed below: IC50 values for each entry.
Target: high affinity rolipram binding form of PDE IV (HPDE IV)
Assay: [3H]-rolipram binding assay (competition for high affinity site)
Conditions: competition with 1 nM [3H]-rolipram, 1 hour at 30° C.
Write it as a number; the unit nM goes unstated.

// worked examples, IC50 included
COc1ccc(C2CCC(c3nnn[nH]3)C2)cc1OC1CCCC1 (stereo not shown) :: 2
N#CC1(c2ccc(OC(F)F)c(OCC3CC3)c2)CCC(O)CC1 (stereo not shown) :: 40
COc1ccc(C2CCN(Cc3ccc(NC(=NC#N)SC)cc3)C2=O)cc1OC1CCCC1 (stereo not shown) :: 30

# evaluate next
Summary for this compound, COc1ccc(C2CN(Cc3ccc(N)cc3)C(=O)N2)cc1OC1CCCC1 (stereo not shown) : IC50 is 10

* * *

Listed below: IC50 values for each entry.
Biological target: low affinity rolipram binding form of PDE IV (LPDE IV), human monocyte PDE IV (Homo sapiens, UniProt P27815)
Sequence (P27815 1-686 isoform P27815-3): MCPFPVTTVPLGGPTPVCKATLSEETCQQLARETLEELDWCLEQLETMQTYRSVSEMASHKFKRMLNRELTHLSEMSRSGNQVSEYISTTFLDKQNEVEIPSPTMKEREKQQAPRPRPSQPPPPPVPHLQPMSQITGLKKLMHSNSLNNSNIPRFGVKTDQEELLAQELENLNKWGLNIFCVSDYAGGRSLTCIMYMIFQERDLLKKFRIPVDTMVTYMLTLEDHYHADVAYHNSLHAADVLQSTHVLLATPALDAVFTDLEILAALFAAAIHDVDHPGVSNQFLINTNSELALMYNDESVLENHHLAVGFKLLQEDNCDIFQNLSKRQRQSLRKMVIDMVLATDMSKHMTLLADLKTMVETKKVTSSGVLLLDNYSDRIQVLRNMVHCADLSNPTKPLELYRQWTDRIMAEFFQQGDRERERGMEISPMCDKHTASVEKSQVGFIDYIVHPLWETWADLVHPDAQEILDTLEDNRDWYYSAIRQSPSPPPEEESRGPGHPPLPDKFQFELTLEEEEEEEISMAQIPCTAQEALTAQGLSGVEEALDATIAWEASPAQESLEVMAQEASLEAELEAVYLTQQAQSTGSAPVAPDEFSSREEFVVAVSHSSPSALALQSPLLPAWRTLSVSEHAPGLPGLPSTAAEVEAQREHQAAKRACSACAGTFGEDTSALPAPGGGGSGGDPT
Returns: string containing the numeric result and its unit.

COc1ccc(C2CCC(c3nnn[nH]3)C2)cc1OC1CCCC1 (centres unmarked) :: 1100 nM
COc1ccc([C@@H]2CC[C@H](C(=O)O)C2)cc1OC1CCCC1 (relative stereo) :: 2700 nM
CC(C)Cn1c(=O)n(C)c(=O)c2[nH]cnc21 [IBMX, reference compound] :: 29100 nM
COc1ccc(CCNC(=O)C(N)=O)cc1OC1CCCC1 :: 890 nM
OCCN(CCO)c1nc(N2CCCCC2)c2nc(N(CCO)CCO)nc(N3CCCCC3)c2n1 [dipyridamole, reference compound] :: 5200 nM
CCOC(=O)C=C1C[C@@H](c2ccc(OC)c(OC3CCCC3)c2)CN1 :: 460 nM

Summary for this compound, COc1ccc(C2CCN(Cc3ccc(NC(=NC#N)SC)cc3)C2=O)cc1OC1CCCC1 (centres unmarked) : IC50 is 100 nM

* * *

System: high affinity rolipram binding form of PDE IV (HPDE IV)
Assay: [3H]-rolipram binding assay (competition for high affinity site)
Design: species or system rat
Settings: HPDE IV IC50 / LPDE IV IC50
recordedEndpoint: High/Low Ratio (IC50 high affinity form divided by IC50 low affinity form)
Lab note: record just the number, no unit beside it.

CC(C)Cn1c(=O)n(C)c(=O)c2[nH]cnc21 [IBMX, reference compound] :: 0.698
COc1ccc(C2CCN(Cc3ccc(NC(=NC#N)SC)cc3)C2=O)cc1OC1CCCC1 (centres unmarked) :: 0.30
COc1ccc(C2CN(Cc3ccc(N)cc3)C(=O)N2)cc1OC1CCCC1 (centres unmarked) :: 0.07

Summary for this molecule, COc1ccc(CCNC(=O)C(N)=O)cc1OC1CCCC1 : High/Low Ratio (IC50 high affinity form divided by IC50 low affinity form) is 0.013

* * *

Listed below: IC50 values for each entry.
Target: low affinity rolipram binding form of PDE IV (LPDE IV), human monocyte PDE IV (Homo sapiens, UniProt P27815)
Write it as a number; the unit nM goes unstated.

COC(=O)C1CC(C#N)(c2ccc(OC(F)F)c(OCC3CC3)c2)CCC1=O (stereo not shown) :: 140

Summary for this compound, N#CC1(c2ccc(OC(F)F)c(OCC3CC3)c2)CCC(O)CC1 (stereo not shown) : IC50 is 21

Summary for this compound, COc1ccc(C2CN(Cc3ccc(N)cc3)C(=O)N2)cc1OC1CCCC1 (stereo not shown) : IC50 is 1400

Summary for this compound, CCOC(=O)C=C1C[C@H](c2ccc(OC)c(OC3CCCC3)c2)CN1 : IC50 is 140
